B1: Zinc finger homeobox protein 4, residues 2183 to 2238; numbered along this chain, Q86UP3 (parent)
chain: SSRTRFTDYQLRVLQDFFDTNAYPKDDEIEQLSTVLNLPTRVIVVWFQNARQKARK

variants of: B1; experiment: abundance fitness (aPCA) (normalised: wild type 0, dead -1); higher = more abundant; growth selection in yeast, the domain comes from the species named; settings: Homo sapiens
For each record, write down the corresponding abundance fitness.
Keep the answer to the number alone.

*Q* I have this variant here, SSRRRFTDYQLRVLQDFFDTNAYPKDDEIEQLSTVLNLPTRVIVVWFQNARQKARK [T4R] , and I need its recorded abundance fitness.
*A* -0.533

*Q* Now consider SRRTRFTDYQLRVLQDFFDTNAYPKDDEIEQLSTVLNLPTRVIVVWFQNARQKARK [S2R] and answer again.
*A* -0.106

*Q* Entry to check: SSRTEFTDYQLRVLQDFFDTNAYPKDDEIEQLSTVLNLPTRVIVVWFQNARQKARK [R5E]
*A* 0.218

*Q* Follow-up entry: SSRTRFTDYQLRVLQDFFDTNDYPKDDEIEQLSTVLNLPTRVIVVWFQNARQKARK [A22D]
*A* 0.002

*Q* What about this variant? SSRTRFTDYQLRILQDFFDTNAYPKDDEIEQLSTVLNLPTRVIVVWFQNARQKARK [V13I]
*A* -0.001

*Q* Do the same for SSRTRFTDYQLRVLQDFFDGNAYPKDDEIEQLSTVLNLPTRVIVVWFQNARQKARK [T20G] please
*A* -0.041

*Q* Now consider SSRTRFTDYQLRVLQDFFMTNAYPKDDEIEQLSTVLNLPTRVIVVWFQNARQKARK [D19M] and answer again.
*A* -0.061

*Q* Try this variant too: SSRTRFTDYELRVLQDFFDTNAYPKDDEIEQLSTVLNLPTRVIVVWFQNARQKARK [Q10E]
*A* -0.297

*Q* // same read-out, input: SSRTRFTDYQLRVLQDFFDTAAYPKDDEIEQLSTVLNLPTRVIVVWFQNARQKARK [N21A]
*A* -0.176

*Q* Now consider SSRTRFTDYQLRVAQDFFDTNAYPKDDEIEQLSTVLNLPTRVIVVWFQNARQKARK [L14A] .
*A* -0.793

*Q* Check SSRTRNTDYQLRVLQDFFDTNAYPKDDEIEQLSTVLNLPTRVIVVWFQNARQKARK [F6N] too.
*A* -0.375

*Q* Next entry: SSRTRFTDYQLRVLQDFFDTNAYPKDDEIMQLSTVLNLPTRVIVVWFQNARQKARK [E30M]
*A* 0.201

*Q* Also SSRTRFTFYQLRVLQDFFDTNAYPKDDEIEQLSTVLNLPTRVIVVWFQNARQKARK [D8F] ?
*A* -0.361

*Q* Ok, now SSRTRFTDYQLRVLQDFFDTNAYPKDDECEQLSTVLNLPTRVIVVWFQNARQKARK [I29C]
*A* -0.015

*Q* Follow-up entry: SSRTRFTDYQLRVLQDMFDTNAYPKDDEIEQLSTVLNLPTRVIVVWFQNARQKARK [F17M]
*A* -0.004

*Q* Next variant: SSRTRFTDYQLRVLQDFFDTNAYPKDDEIEQASTVLNLPTRVIVVWFQNARQKARK [L32A]
*A* -0.659

*Q* Also SSRTRFSDYQLRVLQDFFDTNAYPKDDEIEQLSTVLNLPTRVIVVWFQNARQKARK [T7S] , if possible.
*A* -0.014

*Q* Entry SSRTRFTDYQLRVLQDFFDTNAYPKDDEIEQLVTVLNLPTRVIVVWFQNARQKARK [S33V] please
*A* -0.595

*Q* Follow-up item: SSRTRFTDYQLRVLSDFFDTNAYPKDDEIEQLSTVLNLPTRVIVVWFQNARQKARK [Q15S]
*A* -0.004

Each recorded value in this set is attributed to the Human Domainome abundance scans (Beltran et al. 2025).
